These entries and their values trace back to paper PMC7802075.

- TARGET_UNDER_TEST: LmjIPCS (inositol phosphorylceramide synthase from L. major) (Leishmania major)
- Sequence (E9AFX2 whole entry): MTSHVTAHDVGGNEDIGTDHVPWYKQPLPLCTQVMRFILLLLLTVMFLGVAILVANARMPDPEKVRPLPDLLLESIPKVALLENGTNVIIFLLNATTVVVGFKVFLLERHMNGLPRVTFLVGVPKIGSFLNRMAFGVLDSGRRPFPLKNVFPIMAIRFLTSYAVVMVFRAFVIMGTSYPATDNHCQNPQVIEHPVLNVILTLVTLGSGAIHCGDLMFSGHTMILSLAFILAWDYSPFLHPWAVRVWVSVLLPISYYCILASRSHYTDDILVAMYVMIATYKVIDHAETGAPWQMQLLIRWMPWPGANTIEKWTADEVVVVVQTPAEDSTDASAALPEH
- METHOD_SUMMARY: biochemical
- Assay type: biochemical
- RUN_CONDITIONS: read-out: 20mM inhibition LmjIPCS
OBSERVED_PROPERTY: inhibition at 20000 µM

COMPOUND	OBSERVED
CC(=O)Oc1ccc(Cl)c2cccnc12	19%
O=C(OCC(O)CO)c1ccccc1Nc1ccnc2cc(Cl)ccc12 (stereo not shown)	-16%
COc1cc([C@@H]2c3cc4c(c(O)c3C[C@H]3COC(=O)[C@@H]32)OCO4)cc(OC)c1OC	-1.86%
CO/N=C1\CN(c2nc3c(cc2F)c(=O)c(C(=O)O)cn3C2CC2)CC1CN (stereo not shown)	25%
CN(C)CCC=C1c2ccccc2C=Cc2ccccc21	-2.37%
CN[C@@H]1[C@@H](O[C@H]2O[C@H](CO)[C@@H](N)[C@H](O)[C@H]2O)OC2C[C@@H](N)[C@@H](O[C@H]3[C@H](O)[C@@H](O)[C@H](N)C[C@@H]3N)OC2[C@@H]1O (stereo partly shown)	0.0509%
CCN(CC)C(=O)c1cccc(C)c1 [DIETHYLTOLUAMIDE]	17%
CC(N/C(=N\C#N)Nc1ccncc1)C(C)(C)C (stereo not shown)	12%
CN(C)C(=O)Oc1cccc([N+](C)(C)C)c1 [NEOSTIGMINE BROMIDE]	20%
O=c1cccc2n1C[C@@H]1CNC[C@H]2C1	9%

* * *

- TARGET_UNDER_TEST: LmjIPCS (inositol phosphorylceramide synthase from L. major) (Leishmania major)
- METHOD_SUMMARY: biochemical
- Type: biochemical

COMPOUND	20mM inhibition LmjIPCS / %
CC1=C(O)C(=O)C=C2C1=CC=C1[C@@]2(C)CC[C@@]2(C)[C@@H]3C[C@](C)(C(=O)O)CC[C@]3(C)CC[C@]12C [CELASTROL]	54
Clc1cccc(Cl)c1N=C1NCCN1 [CLONIDINE]	43
COc1cccc(OC)c1OCCNCC1COc2ccccc2O1 (stereo not drawn)	-4.65
CN(C)CCC=C1c2ccccc2CCc2ccccc21 [AMITRIPTYLINE]	82
O=C(/C=C/c1ccc(O)c(O)c1)O[C@H](Cc1ccc(O)c(O)c1)C(=O)O [ROSMARINIC ACID]	58
CNCCCN1c2ccccc2CCc2ccccc21 [DESIPRAMINE]	64
CC(C)(C)NCC(O)c1ccccc1Cl (stereo not drawn) [TULOBUTEROL]	51
O=C(/C=C/c1ccc(O)c(O)c1)OCCc1ccccc1 [PHENETHYL CAFFEATE (CAPE)]	39
CC1=C(C(=O)O)N2C(=O)[C@@H](NC(=O)[C@H](N)c3ccc(O)cc3)[C@H]2SC1 [CEFADROXIL]	37
CC(=O)OCC(=O)[C@@]1(O)CC[C@H]2[C@@H]3CCC4=CC(=O)CC[C@]4(C)[C@H]3C(=O)C[C@@]21C [CORTISONE ACETATE]	62
CC(=O)OCC1=C(C(=O)O)N2C(=O)[C@@H](NC(=O)CSc3ccncc3)[C@H]2SC1 [CEPHAPIRIN]	47
CN(C)[C@@H]1C(O)=C(C(N)=O)C(=O)[C@@]2(O)C(O)=C3C(=O)c4c(O)ccc(Cl)c4[C@@](C)(O)[C@H]3C[C@@H]12 [CHLORTETRACYCLINE]	56
CC(C)OC(=O)C(C)(C)Oc1ccc(C(=O)c2ccc(Cl)cc2)cc1 [FENOFIBRATE]	58
Oc1ncnc2[nH]ncc12 [ALLOPURINOL]	56
CCC1(c2ccc(N)cc2)CCC(=O)NC1=O (stereo not drawn) [AMINOGLUTETHIMIDE]	56
Nc1ccc(C(=O)[O-])cc1.[K+] [POTASSIUM p-AMINOBENZOATE]	40
C=C(C)[C@H]1Cc2c(ccc3c2O[C@@H]2COc4cc(OC)c(OC)cc4[C@@H]2C3=O)O1 [ROTENONE]	43
CCCCOc1cc(C(=O)NCCN(CC)CC)c2ccccc2n1 [DIBUCAINE]	63
